- measurementDescription: Intrinsic clearance in human microsomes
- Format: ADME, Microsome
Decision: CL compared against 1 mL/min/g; not below it gives yes, below it gives no.

-- ask Is the recorded value of CL equal to or greater than 1 mL/min/g for this compound? CCNC(=O)Nc1ccc(-c2nccc([C@]34CCOC[C@H]3C4)n2)cc1
-- reply yes

-- ask Is the recorded value of CL equal to or greater than 1 mL/min/g for this compound? CC(C)(c1cc([C@]23CCOC[C@H]2C3)nc(-c2ccc(NC(=S)NCCO)cc2)n1)S(C)(=O)=O
-- reply yes

-- ask Is the recorded value of CL equal to or greater than 1 mL/min/g for this compound? CCNC(=O)Nc1ccc(-c2nccc([C@@]34CCOC[C@@H]3C4)n2)cc1
-- reply yes

-- ask Is the recorded value of CL equal to or greater than 1 mL/min/g for this compound? CCNC(=O)Nc1ccc(-c2nccc(N3CCOC[C@@H]3C)n2)cc1
-- reply yes

-- ask Is the recorded value of CL equal to or greater than 1 mL/min/g for this compound? C[C@H]1COCCN1c1cc(C(C)(C)S(C)(=O)=O)nc(-c2ccc(NC(=S)NCCO)cc2)n1
-- reply no
